# measured on: vitamin D receptor (VDR) (Sus scrofa, UniProt A3RGC1)
# Construct: high speed supernatant from intestinal mucosa homogenates obtained from normal pigs; from tissue; host or cells: pig intestinal mucosa (high speed supernatant of homogenate)
# Sequence (A3RGC1 whole entry): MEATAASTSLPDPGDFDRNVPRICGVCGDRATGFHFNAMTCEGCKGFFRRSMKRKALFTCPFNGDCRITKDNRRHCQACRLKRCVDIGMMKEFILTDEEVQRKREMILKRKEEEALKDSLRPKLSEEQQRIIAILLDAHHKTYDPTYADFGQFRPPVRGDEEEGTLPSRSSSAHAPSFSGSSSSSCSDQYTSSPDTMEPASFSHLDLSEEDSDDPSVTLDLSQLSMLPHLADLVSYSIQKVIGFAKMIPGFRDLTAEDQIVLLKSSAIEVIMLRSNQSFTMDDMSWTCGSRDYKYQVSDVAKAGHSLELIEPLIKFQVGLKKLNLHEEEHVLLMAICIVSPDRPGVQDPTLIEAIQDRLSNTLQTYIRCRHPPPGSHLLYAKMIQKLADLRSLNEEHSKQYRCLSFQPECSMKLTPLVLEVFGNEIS
# assay protocol: Affinity for vitamin D receptor: competition with [3H]1α,25(OH)2D3
# Type: binding
# condition description: pig intestinal mucosa supernatant, 4° C. 20 hours; 1α,25(OH)2D3 = 100%
List of VDR (relative affinity) values.
measurement name: VDR (relative affinity) (%)

> print(dat)
                                   compound  unit.abbrev  readout.number
1  CC(C)[C@H](O)CC[C@H](C)[C@@]1(C)CC[C@@H](/C=C/C=C2C[C@@H](O)C[C@H](O)C2)C1(C)C (stereo in doubt)            %               3
2  C=C1/C(=C\C=C\[C@@H]2CC[C@](C)([C@@H](C)CC[C@@H](O)C(C)C)C2(C)C)C[C@@H](O)C[C@@H]1O            %               9
3  C=C1/C(=C\C=C\[C@@H]2CC[C@](C)([C@@H](C)CC[C@H](O)C(C)C)C2(C)C)C[C@@H](O)C[C@@H]1O            %              20
4  C=C1/C(=C\C=C\[C@@H]2CC[C@](C)([C@H](C)CCCC(O)(C(F)(F)F)C(F)(F)F)C2(C)C)C[C@@H](O)C[C@@H]1O            %              30
5  CCC(O)(CC)CCC[C@H](C)[C@@]1(C)CC[C@@H](/C=C/C=C2C[C@@H](O)C[C@H](O)C2)C1(C)C            %              60
6  C[C@H](CC#CC(O)(C(F)(F)F)C(F)(F)F)[C@@]1(C)CC[C@@H](/C=C/C=C2C[C@@H](O)C[C@H](O)C2)C1(C)C            %              50
